Cited source for all entries: patent US11560381B1

Measured DC50 of individual entries
target: 3×FLAG-NLuc-BRD9 (Nano luciferase-BRD9 fusion protein) in SYO-1 cells (Homo sapiens (Human), UniProt Q9H8M2)
Sequence (Q9H8M2 whole entry, the tested form may be a part): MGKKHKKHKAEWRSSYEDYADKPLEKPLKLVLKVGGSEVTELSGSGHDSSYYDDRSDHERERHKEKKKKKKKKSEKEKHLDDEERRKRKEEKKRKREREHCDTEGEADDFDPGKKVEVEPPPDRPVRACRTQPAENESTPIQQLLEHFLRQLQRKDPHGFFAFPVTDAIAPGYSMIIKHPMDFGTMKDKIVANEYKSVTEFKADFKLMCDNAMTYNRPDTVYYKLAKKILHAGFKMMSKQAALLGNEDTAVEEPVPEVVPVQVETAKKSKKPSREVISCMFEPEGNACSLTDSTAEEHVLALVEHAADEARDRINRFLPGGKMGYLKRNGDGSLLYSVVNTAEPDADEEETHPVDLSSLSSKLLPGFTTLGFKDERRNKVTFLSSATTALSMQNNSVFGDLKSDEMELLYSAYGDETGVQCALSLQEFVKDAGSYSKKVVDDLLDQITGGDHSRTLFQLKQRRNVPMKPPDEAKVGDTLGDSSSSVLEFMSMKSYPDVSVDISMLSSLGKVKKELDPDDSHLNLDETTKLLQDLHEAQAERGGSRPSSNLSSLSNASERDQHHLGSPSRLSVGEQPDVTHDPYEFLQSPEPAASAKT
test name: SYO1 BRD9 NanoLuc degradation assay
Assay type: cell-based
condition notes: Table 5C; SYO-1 cells expressing 3×FLAG-NLuc-BRD9, 6 hours incubation; read-out: SYO1 BRD9-NanoLuc degradation IC50

1) COc1cc(-c2cc(C(F)F)c(=O)n(C)c2)cc(OC)c1CN1CC(C#Cc2ccc3c(c2)C(=O)N(C2CCC(=O)NC2=O)C3)C1 (stereo not drawn) [Compound D439]    < 0.01 µM

Please report DC50 for the following compound: COc1cc(-c2cc(C)c(=O)n(C)c2)cc(OC)c1CN1CC(C)(C#Cc2ccc3c(c2)C(=O)N(C2CCC(=O)NC2=O)C3)C1 (stereo not drawn) [Compound D450] < 0.01 µM

Please report DC50 for the following compound: C/C=C/Cn1cc(-c2ccc(CN3CCN(S(=O)(=O)c4ccc5c(c4)C(=O)N(C4CCC(=O)NC4=O)C5)CC3)c(Cl)c2)n2cncc2c1=O (stereo not drawn) [Compound D464] ≥ 1 µM

Please report DC50 for the following compound: COc1cc(-c2cn(C)c(=O)c3[nH]ccc23)cc(OC)c1CN1CCC2(CC1)CN(c1ccc3c(c1)C(=O)N(C1CCC(=O)NC1=O)C3)C2 (stereo not drawn) [Compound D419] < 0.01 µM

Please report DC50 for the following compound: COc1cc(-c2cc(C)c(=O)n(C)c2)cc(OC)c1CN1CC(C#Cc2ccc3c(c2)C(=O)N(C2CCC(=O)NC2=O)C3)C1C (stereo not drawn) [Compound D453] < 0.01 µM

Please report DC50 for the following compound: COc1cc(-c2cn(C)c(=O)c3c[nH]nc23)cc(OC)c1CN1CCC2(CC1)CN(c1ccc3c(c1)C(=O)N(C1CCC(=O)NC1=O)C3)C2 (stereo not drawn) [Compound D420] < 0.01 µM
